Please respond with reported pIC50 for every item in the list.
# TARGET_DESC: LSD1 (Homo sapiens, UniProt O60341)
# MEASUREMENT_DESCRIPTION: Biochemical assay for LSD1 activity (LSD1 demethylase TR-FRET)
# CONDITION_INFO: Table 6; biotinylated H3K4me1 peptide, 50 minutes at room temperature, TR-FRET; read-out: LSD1_Pep_TR-FRET_1.0 (IC50 T50)
pIC50: −log10 of the molar value. Where a name gives a salt, the structure may show the parent alone.

CC/C(=C\c1ccccc1)[C@@H]1C[C@H]1N[C@H]1CC[C@H](NCCO)CC1 (single isomer, unassigned) [Compound 159, bis(trifluoroacetic acid salt)]    > 7.00

Go through the items and report each one's pIC50.
1. C/C(=C\c1ccc(-c2cnn(C)c2)cc1)[C@@H]1C[C@H]1NC1CCNCC1 (racemic) [Compound 175, bis(trifluoroacetic Acid) Salt]
2. CNC(=O)CCCN[C@H]1CC[C@@H](N[C@@H]2C[C@H]2/C(C)=C/c2ccccc2)CC1 (single isomer, unassigned) [Compound 145, bis(trifluoroacetic acid) salt]
3. C/C(=C\c1ccccc1)[C@@H]1C[C@H]1N[C@H]1CC[C@H](N(C)C)CC1 (single isomer, unassigned)
4. C/C(=C\c1ccccc1)[C@@H]1C[C@H]1N[C@H]1CC[C@H](NCC(C)(C)C(=O)O)CC1 (single isomer, unassigned) [Compound 148, bis(trifluoroacetic acid) salt]

## Output
1: > 7.00; 2: > 7.00; 3: > 7.00; 4: > 7.00

----------
# TARGET_DESC: LSD1 (Homo sapiens, UniProt O60341)
# MEASUREMENT_DESCRIPTION: Biochemical assay for LSD1 activity (LSD1 demethylase TR-FRET)
# CONDITION_INFO: Table 5; biotinylated H3K4me1 peptide, 50 minutes at room temperature, TR-FRET; read-out: LSD1_Pep_TR-FRET_1.0 (IC50 T50)
pIC50: −log10 of the molar value. Structures can show the parent of a compound that is named as a salt.
Please respond with reported pIC50 for every item in the list.

Go through the items and report each one's pIC50.
1. O=C(O)c1ccc(CN2CCC(CNC3CC3/C=C/c3ccccc3)CC2)cc1 (stereo not shown) [Compound 101, Dihydrochloride]
2. O=C(O)CCN1CCC(CNC2CC2/C=C/c2ccccc2)CC1 (stereo not shown)
3. C(=C\C1CC1NCC1CCN(Cc2ccccc2)CC1)/c1ccccc1 (stereo not shown)
4. CCS(=O)(=O)CCN1CCC(CNC2CC2/C=C/c2ccccc2)CC1 (stereo not shown)

## Output
1. 6.00 to 7.00
2. 6.00 to 7.00
3. 6.00 to 7.00
4. > 7.00

----------
Please respond with reported pIC50 for every item in the list.
# TARGET_DESC: UniProtKB O60341
# MEASUREMENT_DESCRIPTION: Biochemical assay for LSD1 activity (LSD1 demethylase TR-FRET)
# CONDITION_INFO: Table 5; biotinylated H3K4me1 peptide, 50 minutes at room temperature, TR-FRET; read-out: LSD1_Pep_TR-FRET_1.0 (IC50 T50)
pIC50: −log10 of the molar value. Structures can show the parent of a compound that is named as a salt.

O=C(O)CN1CCC(CNC2CC2/C=C/c2ccccc2)CC1 (stereo not drawn)    > 7.00

Go through the items and report each one's pIC50.
1. CC1(N)CC1/C=C/c1ccccc1 (stereo not drawn) [Compound 112, 1-methyl-2-((E)-styryl)cyclopropanamine]
2. F/C(=C\c1ccccc1)C1CC1NCC1CCNCC1 (racemic) [Compound 108, Dihydrochloride]

## Output
["6.00 to 7.00", "6.00 to 7.00"]
